FYI, the data here is from patent US8871934B2.

Biological target: UniProt:Q15119
Assay: Inhibitory action of PDHK activity in vitro (kinase reaction, residual PDH activity measured)
Assay type: biochemical
Conditions: read-out: PDHK inhibitory activity IC50
satisfied if IC50 is below 1000 nM. not satisfied if not; exact matches included in not satisfied.

# count of solved cases: 5
CN(C)C1CN(C(=O)c2ccc3c(c2)C(O)(C(F)(F)F)c2ccccc2-3)C1 (stereo not shown) [compound 133]: not satisfied
O=C(c1ccc2c(c1)C(O)(C(F)(F)F)c1ccccc1-2)N1CC1 (stereo not shown) [compound 78]: not satisfied
NCCOc1ccc2c(c1)C(O)(C(F)(F)F)c1ccccc1-2 (stereo not shown) [compound 320]: not satisfied
O=C(c1ccc2c(c1)C(O)(C(F)(F)F)c1ccccc1-2)N1CC(O)C1 (stereo not shown) [compound 79]: satisfied
CC(C)(C)Cn1cc(-c2cc(C(N)=O)c3c(c2)C(O)(C(F)(F)F)c2ccccc2-3)cn1 (stereo not shown) [compound 646]: satisfied

// query Hello, is IC50 of the following compound strictly smaller than 1000 nM? OC1(C(F)(F)F)c2ccccc2-c2c(Cl)cc(-c3ccccc3)cc21 (stereo not shown) [compound 159]
// result satisfied

// query Bench note: check whether CC1CCN1C(=O)c1ccc2c(c1)C(O)(C(F)(F)F)c1ccccc1-2 (stereo not shown) [compound 90] shows IC50 below 1000 nM
// result satisfied

// query For this compound, is IC50 lower than 1000 nM? O=C(c1cc(Br)c2c(c1)C(O)(C(F)(F)F)c1ccccc1-2)N1CCC1 (stereo not shown) [compound 114]
// result satisfied

// query Confirm or reject: IC50 of Cc1cc(C(=O)N2CC(O)C2)cc2c1-c1ccccc1C2(O)C(F)(F)F (stereo not shown) [compound 350] lies strictly below 1000 nM
// result satisfied

// query IC50 strictly < 1000 nM for this compound? CN(C)C(=O)CCCCOc1ccc2c(c1)C(O)(C(F)(F)F)c1ccccc1-2 (stereo not shown) [compound 299]
// result satisfied

// query Would you kindly verify if IC50 of CC(C)OC(=O)c1cccc2c1-c1ccccc1C2(O)C(F)(F)F (stereo not shown) [compound 60] is strictly less than 1000 nM?
// result not satisfied

// query Regarding CNc1cccc2c1-c1ccccc1C2(O)C(F)(F)F (stereo not shown) [compound 85] , kindly confirm whether its IC50 is beneath 1000 nM.
// result not satisfied

// query is_below(IC50, 1000 nM) for CCn1cc(-c2cc(C(N)=O)c3c(c2)C(O)(C(F)(F)F)c2ccccc2-3)cn1 (single isomer, unassigned; (-)) [compound 630] ?
// result satisfied

###

Assignment: determine reported pIC50 for the given molecules.
Molecular target: human PDHK2 (hPDHK2) (Homo sapiens (Human), UniProt Q15119)
Experiment: Inhibitory action of PDHK activity in vitro (kinase reaction, residual PDH activity measured)
Type: biochemical
Conditions: PDHK inhibitory activity, class symbol of IC50
pIC50: −log10 of the molar value.

Use the examples below as a reference point.
OC1(C(F)(F)F)c2ccccc2-c2c(-c3ccsc3)cccc21 (stereo not shown): < 6.00
CC(C)(C)OC(=O)c1ccc(-c2cc(-c3cccnc3)c3c(c2)C(O)(C(F)(F)F)c2ccccc2-3)cc1 (stereo not shown): > 7.00
OC1(C(F)(F)F)c2ccccc2-c2ccc(OC3CCCCC3)cc21 (stereo not shown): < 6.00

Now take the following molecule into account.
// query Can you look up the measured pIC50 of O=C(O)CCn1cc(-c2cc(F)cc3c2-c2ccccc2[C@]3(O)C(F)(F)F)cn1 (stereo in doubt) for me?
// result > 7.00

###

Target: human PDHK2 (hPDHK2) (Homo sapiens (Human), UniProt Q15119)
Assay: Inhibitory action of PDHK activity in vitro (kinase reaction, residual PDH activity measured)
Format: biochemical
Conditions: PDHK inhibitory activity, class symbol of IC50
pIC50: −log10 of the molar value.
Record form. Attribute: pIC50. Fill in for each entry.

NC(=O)Cn1cc(-c2cccc3c2-c2ccccc2C3(O)C(F)(F)F)cn1 (stereo not shown): > 7.00
OC1(C(F)(F)F)c2ccccc2-c2c(Cl)cc(-c3ccccc3)cc21 (stereo not shown): 6.00 to 7.00
N#Cc1cccc(-c2ccc3c(c2)C(O)(C(F)(F)F)c2ccccc2-3)c1 (stereo not shown): 6.00 to 7.00
CCOC(=O)N1CCN(c2ccc3c(c2)C(O)(C(F)(F)F)c2ccccc2-3)CC1 (stereo not shown): < 6.00
NC(=O)Cn1cc(-c2cc(OCCC34CC5CC(CC(C5)C3)C4)cc3c2-c2ccccc2C3(O)C(F)(F)F)cn1 (stereo not shown): > 7.00
OC1(C(F)(F)F)c2ccccc2-c2ccc(N3CCNCC3)cc21 (stereo not shown): < 6.00
OCCCCCOc1ccc2c(c1)C(O)(C(F)(F)F)c1ccccc1-2 (stereo not shown): 6.00 to 7.00
O=C(COc1cc(-c2cnn(CCO)c2)c2c(c1)C(O)(C(F)(F)F)c1ccccc1-2)N1CCC1 (stereo not shown): > 7.00
Oc1ccc2c(c1)C(O)(C(F)(F)F)c1ccccc1-2 (stereo not shown): < 6.00
Cn1cc(-c2cc(Cl)cc3c2-c2ccccc2C3(O)C(F)(F)F)cn1 (stereo not shown): > 7.00

Batch of 8 compounds: report pIC50 for each.
1. COC(=O)c1cc(-c2cnn(C)c2)c2c(c1)C(O)(C(F)(F)F)c1ccccc1-2 (stereo not shown)
2. CN1C(=O)CCC1COc1ccc2c(c1)C(O)(C(F)(F)F)c1ccccc1-2 (stereo not shown)
3. CCCCOc1ccc2c(c1)C(O)(C(F)(F)F)c1ccccc1-2 (stereo not shown)
4. C#Cc1cc(-c2cnn(C)c2)cc2c1-c1ccccc1C2(O)C(F)(F)F (stereo not shown)
5. CON(C)C(=O)c1cccc2c1-c1ccccc1C2(O)C(F)(F)F (stereo not shown)
6. NC(=O)CCn1cc(-c2cc(Cl)c3c(c2)C(O)(C(F)(F)F)c2ccccc2-3)cn1 (stereo not shown)
7. CC(=O)NCCOc1cc(-c2cnn(C)c2)c2c(c1)C(O)(C(F)(F)F)c1ccccc1-2 (stereo not shown)
8. CC(=O)Nc1ccc(-c2ccc3c(c2)C(O)(C(F)(F)F)c2ccccc2-3)cc1 (stereo not shown)

// result
1: > 7.00; 2: 6.00 to 7.00; 3: 6.00 to 7.00; 4: > 7.00; 5: < 6.00; 6: > 7.00; 7: > 7.00; 8: 6.00 to 7.00

// query Name the reported pIC50 value associated with the compound CNC(=O)COc1cc(-c2cnn(C)c2)c2c(c1)C(O)(C(F)(F)F)c1ccccc1-2 (stereo not shown)
// result > 7.00

###

Molecular target: human PDHK2 (hPDHK2) (Homo sapiens (Human))
Experiment: Inhibitory action of PDHK activity in vitro (kinase reaction, residual PDH activity measured)
Type: biochemical
Details: PDHK inhibitory activity IC50 (μmol/L)
Experimental: In the case of human PDHK2 (hPDHK2, Genbank Accession No. NM_002611), modified hPDHK2 cDNA wherein FLAG-Tag sequence is added to the N terminal by a polymerase linkage reaction was prepared based on hPDHK2 cDNA clone (pReceiver-M01/PDK2-GeneCopoeia), and cloned into a vector (pET17b-Novagen). The recombinant construct was transformed into Escherichia coli (DH5α-TOYOBO). The recombinant clones were identified, plasmid DNA was isolated and subjected to the DNA sequence analysis. […]
I'd be grateful if you could share measured IC50 for these entries.
Answers are plain numbers, in nM.

Respectfully, I request IC50 for each entry included below.
1. Cc1cc(-c2cnn(C(CO)(CO)CO)c2)c2c(c1)[C@@](O)(C(F)(F)F)c1ccccc1-2 [compound 707]
2. Cc1cc(-c2cnn(CCO)c2)c2c(c1)[C@@](O)(C(F)(F)F)c1ccccc1-2 (stereo in doubt) [compound 529]
3. O=C(O)CCn1cc(-c2cc(F)cc3c2-c2ccccc2[C@]3(O)C(F)(F)F)cn1 (stereo in doubt) [compound 543]

// result
[19, 17, 36]

Items follow; give IC50 for each.
1. Cc1cc(-c2cnn(CC(N)=O)c2)c2c(c1)[C@@](O)(C(F)(F)F)c1ccccc1-2 (stereo in doubt) [compound 532]
2. CNC(=O)Cn1cc(-c2cc(F)cc3c2-c2ccccc2[C@]3(O)C(F)(F)F)cn1 (stereo in doubt) [compound 534]

// result
[16, 16]

Go through the items and report each one's IC50.
1. CNC(=O)Cn1cc(-c2cc(C)cc3c2-c2ccccc2[C@]3(O)C(F)(F)F)cn1 (stereo in doubt) [compound 533]
2. Cc1cc(-c2cnn(CC(=O)O)c2)c2c(c1)[C@@](O)(C(F)(F)F)c1ccccc1-2 (stereo in doubt) [compound 550]

// result
15
69

For each of the molecules below, state IC50.
1. Cc1cc(-c2cnn(C3(CO)CCCC3)c2)c2c(c1)[C@@](O)(C(F)(F)F)c1ccccc1-2 (stereo in doubt) [compound 546]
2. O=C(O)CCCn1cc(-c2cc(F)cc3c2-c2ccccc2[C@]3(O)C(F)(F)F)cn1 (stereo in doubt) [compound 537]
3. Cc1cc(Cl)c2c(c1)[C@](O)(C(F)(F)F)c1ccccc1-2 (stereo in doubt) [compound 520]
4. OC1(Cn2cc(-c3cc(F)cc4c3-c3ccccc3[C@]4(O)C(F)(F)F)cn2)CCCCC1 (stereo in doubt) [compound 544]

// result
1: 15; 2: 35; 3: 3330; 4: 22
